System: cellular uptake of 1 in HeLa Kyoto cells
Assay: cells
Assay type: cell-based
Settings: HeLa Kyoto, 2 h, HeLa; tpre 2 h with inhibitor, removal, tinc 0.5 h with 1 (10 µM); read-out: MIC, inhibition of cellular uptake of 1
Listed below: minimal effective concentration values for each entry.
Your answer is read as µM, so omit the unit and give the number.

Here are 4 molecules together with their reported answers.
GET minimal effective concentration | system: cellular uptake of 1 in HeLa Kyoto cells | item: CCN1C(=O)C2SSC1C(=O)N2CC(=O)O (centres unmarked) [compound 4]
0.1

Quote cellular uptake of 1 in HeLa Kyoto cells minimal effective concentration for entry COCCOCCOCCNC(=O)c1ccc2c(c1)SSSSS2 [compound 10] .
3.5

Please look at CCN1C(=O)C2SSC1C(=O)N2CC(=O)NCC[N+](C)(C)C (centres unmarked) [compound 12] and tell me its recorded minimal effective concentration on cellular uptake of 1 in HeLa Kyoto cells.
30

For cellular uptake of 1 in HeLa Kyoto cells, give minimal effective concentration of the listed molecule: O=C(O)CN1C(=O)C2SSC1C(=O)N2CCOc1ccccc1 (centres unmarked) [compound 5]
0.1

Next item in the queue.
Fill: minimal effective concentration (cellular uptake of 1 in HeLa Kyoto cells) for this molecule [O-][S+]1CC(O)C(O)CS1 (centres unmarked) [compound 17]
300

----------
Test system: cellular uptake of 1 in HeLa Kyoto cells
Experiment: cells
Type: cell-based
Conditions: HeLa; tpre 0.5 h, then tco 0.5 h co-incubation of inhibitor and 1 (10 µM); read-out: IC50, inhibition of cellular uptake of 1
pIC50: −log10 of the molar value. Bridge positions count the residues as written; N and C are the ends. Peptide text beside a SMILES is read from it.
Property: pIC50

Under cellular uptake of 1 in HeLa Kyoto cells: report pIC50 of N[C@H]1CSSC[C@@H](C(=O)NCC(=O)O)NC(=O)[C@H](CCC(=O)O)NC1=O [compound 18] (H-CECG-OH; disulfide 1-3) .
< 3.30

----------
System: cellular uptake of 2 in HeLa Kyoto cells
Assay: cells
Format: cell-based
Details: HeLa; tpre 2 h with inhibitor, removal, tinc 0.5 h with 2 (10 µM); read-out: IC50, inhibition of cellular uptake of 2
Bridge positions count the residues as written; N and C are the ends. Peptide text beside a SMILES is read from it.
Property: IC50

Please give measured IC50 of the following entry: N[C@H]1CSSC[C@@H](C(=O)NCC(=O)O)NC(=O)[C@H](CCC(=O)O)NC1=O [compound 18] (H-CECG-OH; disulfide 1-3)
> 1000 µM

Shift focus to the following entry.
Specify reported IC50 for the compound shown: N[C@H]1CSSC[C@@H](C(=O)N[C@@H](CCC(=O)O)C(=O)O)NC(=O)CNC1=O [compound 19] (H-CGCE-OH; disulfide 1-3)
> 1000 µM

----------
Test system: cellular uptake of 2 in HeLa Kyoto cells
Assay: cells
Format: cell-based
Settings: HeLa Kyoto, read-out: IC50, inhibition of cellular uptake of 2, HeLa; tpre 23.5 h with FBS, then tco 0.5 h co-incubation of inhibitor and 2 (10 µM)
Property: IC50

Check the records and state IC50 for O=C(O)CC[C@H](NC(=O)CCCCC1CCSS1(=O)=O)C(=O)O (stereo partly shown) [compound 15]
> 500 µM

----------
Test: Relative cell viability in HCHT screening (propidium iodide negative nuclei count)
Assay type: cell-based
Conditions: human, HeLa; tpre 0.5 h, then tco 0.5 h co-incubation of inhibitor and 1 (10 µM); read-out: GI50, concentration causing 50% cell growth inhibition
Property: GI50

Some molecules with recorded GI50:
// fetch GI50 given entry O=C(O)CNC(=O)c1ccc2c(c1)SSSSS2 [compound 6]
> 20 µM

Given CCN1C(=O)C2SSC1C(=O)N2CC(=O)O (stereo not shown) [compound 4] , respond with its GI50.
~8.4 µM

For the molecule CCN1C(=O)C2SSSSC1C(=O)N2CC(=O)O (stereo not shown) [compound 3] , give its measured GI50 value.
13.3 µM

Next, consider the following molecule.
Let me know recorded GI50 for [O-][S+]1CC(O)C(O)CS1 (stereo not shown) [compound 17] , thanks.
> 500 µM

----------
System: HeLa Kyoto cells
Test: Relative cell viability in HCHT screening (propidium iodide negative nuclei count)
Format: cell-based
Settings: HeLa; tpre 2 h with inhibitor, removal, tinc 0.5 h with 1 (10 µM); read-out: GI50, concentration causing 50% cell growth inhibition
Property: GI50

Give GI50 for [O-][S+]1CC(O)C(O)CS1 (centres unmarked) [compound 22]
> 5000 µM

Kindly consider the entry below.
Look up and report measured GI50 for this entry: [O-][S+]1CC(O)C(O)CS1 (centres unmarked) [compound 17]
730 µM

----------
GI50 overview
Experiment: Relative cell viability in HCHT screening (propidium iodide negative nuclei count)
Format: cell-based
Settings: human, HeLa; tpre 4 h with inhibitor, removal, tinc 0.5 h with 2 (10 µM); read-out: GI50, concentration causing 50% cell growth inhibition
Text: With COCs 1 and 2 as cell-penetrating reporters, a fully automated, fluorescent microscopy image-based high-content high-throughput (HCHT)[19] inhibitor screening assay was developed. […] Hindered reporter uptake then causes decrease of fluorescence inside of cells (Fig. 3a). Automated data analysis[19] was established to extract average fluorescence intensity per cell and, at the same time, cell viability from propidium iodide negative nuclei count (Fig. 3 and S3–S6 ^†). […]

Example entries begin here.
Provide only the value of recorded GI50 for O=C(O)CC[C@H](NC(=O)CCCCC1CCSS1(=O)=O)C(=O)O (stereo partly drawn) [compound 15]
> 500 µM

Look up and report measured GI50 for this entry: CCN1C(=O)C2SSC1C(=O)N2CC(=O)O (stereo not drawn) [compound 4]
~4 µM

Note GI50 for the compound shown: O=S1(=O)C[C@H](O)[C@H](O)CS1 [compound 16]
> 500 µM

---
Complete the entry with GI50 for O=C(O)CC[C@H](NC(=O)CN1C(=O)C2SSC1C(=O)N2CCOc1ccccc1)C(=O)O (stereo partly drawn) [compound 9]
> 100 µM

Hello, please tell me recorded GI50 for this one: O=C(O)CNC(=O)c1ccc2c(c1)SSSSS2 [compound 6]
~17 µM

Return the recorded GI50 value; entry: O=C(CN1C(=O)C2SSC1C(=O)N2CCOc1ccccc1)NCC(=O)OC[C@H]1OC(O)[C@H](O)[C@@H](O)[C@@H]1O (stereo partly drawn) [compound 7]
> 100 µM

----------
Assay: Relative cell viability in HCHT screening (propidium iodide negative nuclei count)
Format: cell-based
Details: human, HeLa; tpre 0.25 h with inhibitor, removal, tinc 0.5 h with 1 (10 µM); read-out: GI50, concentration causing 50% cell growth inhibition
Property: GI50

Recorded GI50, per entry:
Tell me its GI50 given CS(=O)(=O)c1nc2ccccc2o1 as the entry.
> 200 µM

Tell me measured GI50 for CS(=O)(=O)c1nnc(-c2ccccc2)o1 please.
> 500 µM

// below: GI50 requested for another molecule
Find the measured GI50 of CS(=O)(=O)c1nc2ccccc2s1 and report it.
> 500 µM

----------
Test system: HeLa Kyoto cells
Assay: Relative cell viability in HCHT screening (propidium iodide negative nuclei count)
Assay type: cell-based
Conditions: HeLa; tpre 4 h with inhibitor, removal, tinc 0.5 h with 1 (10 µM); read-out: GI50, concentration causing 50% cell growth inhibition
Property: GI50

Answer with the recorded GI50 for the compound listed here: [O-][S+]1CC(O)C(O)CS1 (centres unmarked) [compound 22]
> 2000 µM

// moving on: another record for GI50
// Input: [O-][S+]1CC(O)C(O)CS1 (centres unmarked) [compound 17] . Output its GI50 only.
~500 µM

----------
// reported GI50 at 1 h per item
Assay: Relative cell viability in HCHT screening (propidium iodide negative nuclei count)
Assay type: cell-based
Conditions: human, HeLa Kyoto cells, HeLa; tpre 0.5 h, then tco 0.5 h co-incubation of inhibitor and 2 (10 µM); read-out: GI50, concentration causing 50% cell growth inhibition
Bridge positions count the residues as written; N and C are the ends. Peptide text beside a SMILES is read from it.

Read the entry N[C@H]1CSSC[C@@H](C(=O)N[C@@H](CCC(=O)O)C(=O)O)NC(=O)CNC1=O [compound 19] (H-CGCE-OH; disulfide 1-3) and write its reported GI50 at 1 h.
> 500 µM

***
Annotate the molecule N[C@H]1CSSC[C@@H](C(=O)NCC(=O)O)NC(=O)[C@H](CCC(=O)O)NC1=O [compound 18] (H-CECG-OH; disulfide 1-3) with its measured GI50 at 1 h.
> 500 µM

----------
Tested on: cellular uptake of 1 in HeLa Kyoto cells
Assay: cells
Type: cell-based
Details: HeLa Kyoto, 1 h, HeLa; tpre 1 h with inhibitor, removal, tinc 0.5 h with 1 (10 µM); read-out: MIC, inhibition of cellular uptake of 1
Property: minimal effective concentration (µM)
Please state the figure in µM; there is no need to write the unit.

Fill: minimal effective concentration (cellular uptake of 1 in HeLa Kyoto cells) for this compound O=C(O)c1cc(SSc2ccc([N+](=O)[O-])c(C(=O)O)c2)ccc1[N+](=O)[O-] [compound 20, 5,5’-Dithiobis(2-nitrobenzoic acid), reference compound]
500

Output reported minimal effective concentration of the compound O=C(O)CN1C(=O)C2SSC1C(=O)N2CCOc1ccccc1 (stereo not shown) on cellular uptake of 1 in HeLa Kyoto cells.
0.1

State the measured minimal effective concentration (cellular uptake of 1 in HeLa Kyoto cells) of CS(=O)(=O)c1nc2ccccc2s1
300

Check cellular uptake of 1 in HeLa Kyoto cells data and give minimal effective concentration for O=C(O)CC[C@H](NC(=O)CN1C(=O)C2SSC1C(=O)N2CCOc1ccccc1)C(=O)O (stereo partly shown) .
7

Please indicate recorded minimal effective concentration of O=C(O)CNC(=O)c1ccc2c(c1)SSSSS2 measured with cellular uptake of 1 in HeLa Kyoto cells.
0.3

Write down the reported minimal effective concentration (system: cellular uptake of 1 in HeLa Kyoto cells) of CS(=O)(=O)c1nc2ccccc2o1
8

State recorded minimal effective concentration with cellular uptake of 1 in HeLa Kyoto cells, entry O=C(CN1C(=O)C2SSC1C(=O)N2CCOc1ccccc1)NCCS(=O)(=O)O (stereo not shown) , no comment.
2

Under cellular uptake of 1 in HeLa Kyoto cells, report minimal effective concentration for CCN1C(=O)C2SSC1C(=O)N2CC(=O)NCC[N+](C)(C)C (stereo not shown)
30

Next:
Answer briefly: minimal effective concentration recorded on cellular uptake of 1 in HeLa Kyoto cells for CCN1C(=O)C2SSC1C(=O)N2CC(=O)O (stereo not shown)
0.1

Provide cellular uptake of 1 in HeLa Kyoto cells minimal effective concentration reading for COCCOCCOCCNC(=O)c1ccc2c(c1)SSSSS2 .
7

Param request: minimal effective concentration | system cellular uptake of 1 in HeLa Kyoto cells | item O=C(CN1C(=O)C2SSC1C(=O)N2CCOc1ccccc1)NCC(=O)OC[C@H]1OC(O)[C@H](O)[C@@H](O)[C@@H]1O (stereo partly shown)
0.5

Lab note: record minimal effective concentration of O=C(O)C1CS[S+]([O-])C1 (stereo not shown) tested on cellular uptake of 1 in HeLa Kyoto cells.
1000

Retrieve minimal effective concentration on cellular uptake of 1 in HeLa Kyoto cells; query O=S1(=O)C[C@H](O)[C@H](O)CS1
200

Please respond with reported minimal effective concentration (system cellular uptake of 1 in HeLa Kyoto cells) for O=C(O)CC[C@H](NC(=O)CCCCC1CCSS1(=O)=O)C(=O)O (stereo partly shown) .
50
